Tested on: 3D7
Assay: qHTS profiling for inhibitors of Plasmodium falciparum proliferation (AID 504749); also: nearly all actives have a fitted effect of over 60% in size
Settings: P. falciparum in erythrocytes, SYBR Green DNA, 72 h; series mostly up to 28.7 µM
Inconclusive results are not listed. Calls of active or inactive are those of the source. Calls follow the shape of the dose curve; as a rule, active = well fitted inhibition curve with a large enough effect; inconclusive = small, poorly fitted or top-dose-only effect; inactive = flat fitted curve, though single readings scatter.
Classes used: yes for active, no for inactive

| MOLECULE | EXPERIMENTAL SYSTEM | ANSWER LABEL |
| --- | --- | --- |
| [O]=[Cr](=[O])([OH])[O][Cr](=[O])(=[O])[OH] | 3D7 | no |
| CCC1(c2ccccc2)C(=O)NC(=O)N(C(=O)c2ccccc2)C1=O (stereo not drawn) | 3D7 | no |
| O=C(O)C(Cl)(Cl)Cl | 3D7 | no |
| CC(C)(C)c1cc(O)ccc1O | 3D7 | yes |
| CC(=O)OO | 3D7 | no |
| O=[N+]([O-])C(Br)(CO)CO | 3D7 | no |
| COC([CH2][Hg])CNC(=O)c1ccccc1OCC(=O)O (stereo not drawn) | 3D7 | no |
| CCCCNCC(O)c1ccc(O)cc1 (stereo not drawn) | 3D7 | no |
